Each recorded value in this set is attributed to BindingDB's records for doi:10.1021/jm00083a013.

Target: UniProt O09175
Sequence (O09175 whole entry): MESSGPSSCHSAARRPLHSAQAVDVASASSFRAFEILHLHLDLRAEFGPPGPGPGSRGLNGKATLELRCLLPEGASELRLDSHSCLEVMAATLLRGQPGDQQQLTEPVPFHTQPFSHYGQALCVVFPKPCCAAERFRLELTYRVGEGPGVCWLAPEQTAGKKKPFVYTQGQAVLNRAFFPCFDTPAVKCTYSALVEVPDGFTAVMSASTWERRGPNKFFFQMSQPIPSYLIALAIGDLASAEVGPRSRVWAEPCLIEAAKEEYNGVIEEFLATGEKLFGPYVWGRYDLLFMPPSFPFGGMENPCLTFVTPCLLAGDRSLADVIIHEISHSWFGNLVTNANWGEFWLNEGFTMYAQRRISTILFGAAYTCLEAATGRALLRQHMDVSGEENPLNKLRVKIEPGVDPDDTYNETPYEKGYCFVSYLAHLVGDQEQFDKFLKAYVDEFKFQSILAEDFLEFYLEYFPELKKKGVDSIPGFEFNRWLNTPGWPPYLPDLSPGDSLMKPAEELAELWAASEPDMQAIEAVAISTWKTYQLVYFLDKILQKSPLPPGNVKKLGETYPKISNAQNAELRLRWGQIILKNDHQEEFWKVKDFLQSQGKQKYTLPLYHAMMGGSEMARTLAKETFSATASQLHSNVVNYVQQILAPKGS
Test: Compound was evaluated for its inhibitory potency against purified membrane bound rat brain Aminopeptidase B (AP-B) using L-lysine-beta napthylamide as substrate
Attribute measured: IC50 (µM)
Give bare numbers, in µM.

Ask: IC50 for `COC(=O)[C@H](CC(C)C)NC(=O)[C@H](O)[C@@H](N)CCCCN` ?
Result: 500
